Measured values drawn from patent US20250296938A1 for this set.

tgt: Rac-1 (Homo sapiens)
measurement.protocol: Ras GTP binding domain inhibition assay (Cy3-GTP/Cy5-GTP competition)
condition.summary: with SOS, read-out: Rac-1 + SOS: % inh.

compound: CO[C@H]1CC[C@@H](Nc2nc(-c3nccn3C)nc3sc(-c4ccn(C(C)C)n4)c(-c4ccccc4)c23)C1 [drawing 1047]
inhibition at 20 µM: 51 to 75%

compound: Oc1nc(-c2nccn2Cc2ccccn2)nc2c(-c3ccccn3)csc12 [drawing 986]
inhibition at 20 µM: 51 to 75%

compound: COc1nc(-c2ccccn2)nc2c(-c3ccccn3)csc12 [drawing 1048]
inhibition at 20 µM: 26 to 50%

compound: CO[C@H]1C[C@H](Nc2nc(-c3nccn3C)nc3sc(-c4ccn(C)n4)c(-c4ccccc4)c23)C1 [drawing 1041]
inhibition at 20 µM: 51 to 75%

compound: COC1CCN(c2nc(-c3nccn3C)nc3sc(-c4ccc(N)nc4C)c(-c4ccccc4)c23)C1 (stereo not drawn) [drawing 953]
inhibition at 20 µM: 0%

compound: COC1CCN(c2nc(-c3nccn3C)nc3sc(-c4ccncc4C)c(-c4ccccc4)c23)C1 (stereo not drawn) [drawing 955]
inhibition at 20 µM: 0%

compound: COc1c(O)nc(-c2ccccn2)nc1Oc1cccnc1 [drawing 937]
inhibition at 20 µM: 76 to 100%

compound: CO[C@H]1CC[C@@H](Nc2nc(-c3ncc[nH]3)nc3sc(-c4ccn(C)n4)c(-c4ccccc4)c23)C1 [drawing 1046]
inhibition at 20 µM: 51 to 75%

compound: CO[C@H]1C[C@@H](Nc2nc(-c3ccccn3)nc3sccc23)C1 [drawing 1037]
inhibition at 20 µM: 76 to 100%

compound: COc1c(O)nc(-c2ccccn2)nc1Oc1cnn(C)c1 [drawing 938]
inhibition at 20 µM: 76 to 100%

compound: CC(C)COc1ccc(-c2csc3c(O)nc(-c4nccn4Cc4ccccn4)nc23)cn1 [drawing 1034]
inhibition at 20 µM: 76 to 100%

compound: COCC(C)Nc1nc(-c2nccn2C)nc2sc(-c3ccccc3Cl)c(-c3cscn3)c12 (stereo not drawn) [drawing 989]
inhibition at 20 µM: 26 to 50%

compound: COC1CCN(c2nc(-c3nccn3C)nc3sc(-c4ccn(C)n4)c(-c4ccccc4)c23)C1 (stereo not drawn) [drawing 998]
inhibition at 20 µM: 26 to 50%

compound: Cn1ccnc1-c1nc(O)c2scc(-c3ccccn3)c2n1 [drawing 988]
inhibition at 20 µM: 76 to 100%

compound: COC1CCN(c2nc(-c3nccn3C)nc3sc(-c4ccc(CO)cc4)c(-c4ccccc4)c23)C1 (stereo not drawn) [drawing 954]
inhibition at 20 µM: 0%

compound: COc1cccc(-c2sc3nc(-c4nccn4C)nc(N4CCC(OC)C4)c3c2-c2cscn2)c1 (stereo not drawn) [drawing 1002]
inhibition at 20 µM: 1 to 25%

compound: COCCn1cc(Nc2nc(-c3ccccn3)nc(OC)c2OC)cn1 [drawing 928]
inhibition at 20 µM: 1 to 25%

compound: COc1nc(-c2ccccn2)nc(Nc2cnn(C)c2)c1OC [drawing 929]
inhibition at 20 µM: 0%

compound: COCC(C)Nc1nc(-c2nccn2C)nc2sc(-c3ccn(C)n3)c(-c3ccc(OC)cc3)c12 (stereo not drawn) [drawing 1004]
inhibition at 20 µM: 0%

compound: COCCNc1nc(-c2cn(C)cn2)nc2sc(-c3cccc(OC)c3Cl)c(-c3ccc(OC)cc3)c12 [drawing 932]
inhibition at 20 µM: 51 to 75%

compound: CO[C@H]1C[C@@H](Nc2nc(-c3nccn3C)nc3sc(-c4ccn(C)n4)c(C)c23)C1 [drawing 1049]
inhibition at 20 µM: 51 to 75%

compound: COc1cccc(-c2csc3c(O)nc(-c4nccn4C)nc23)c1Cl [drawing 1013]
inhibition at 20 µM: 26 to 50%

compound: COc1c(O)nc(-c2ccccn2)nc1Oc1ccc2ncccc2c1 [drawing 939]
inhibition at 20 µM: 51 to 75%

compound: CO[C@H]1C[C@@H](Nc2nc(-c3nccn3C)nc3sc(-c4cnn(C)c4)c(-c4ccccc4)c23)C1 [drawing 1027]
inhibition at 20 µM: 76 to 100%

compound: CCOc1cccc(Nc2nc(-c3ccccn3)nc(O)c2OC)c1 [drawing 1017]
inhibition at 20 µM: 76 to 100%

compound: COC1CCN(c2nc(-c3nccn3C)nc3sc(-c4ccnc(N(C)C)c4)c(-c4ccccc4)c23)C1 (stereo not drawn) [drawing 958]
inhibition at 20 µM: 51 to 75%

compound: COc1c(O)nc(-c2ccccn2)nc1Oc1ccc(C(=O)N(C)C)cc1 [drawing 1014]
inhibition at 20 µM: 51 to 75%

compound: COCCCN(C)c1nc(-c2nccn2C)nc2sc(-c3ccn(C)n3)c(-c3ccccc3)c12 [drawing 1000]
inhibition at 20 µM: 26 to 50%

compound: Oc1nc(-c2ncc3n2CCCC3)nc2c(-c3ccccn3)csc12 [drawing 968]
inhibition at 20 µM: 76 to 100%

compound: CO[C@H]1C[C@@H](Nc2nc(-c3ncc[nH]3)nc3sc(-c4ccn(C)n4)c(-c4ccccc4)c23)C1 [drawing 1045]
inhibition at 20 µM: 26 to 50%

compound: COCCNc1nc(-c2cn(C)cn2)nc2sc(-c3cc(OC)ccc3Cl)c(-c3ccc(OC)cc3)c12 [drawing 930]
inhibition at 20 µM: 51 to 75%

compound: Cn1ccc(-c2sc3nc(-c4nccn4C)nc(NCC4CCOC4)c3c2-c2ccccc2)n1 (stereo not drawn) [drawing 996]
inhibition at 20 µM: 26 to 50%

compound: COC1CCN(c2nc(-c3nccn3C)nc3sc(-c4ccnn4C)c(-c4ccccc4)c23)C1 (stereo not drawn) [drawing 972]
inhibition at 20 µM: 1 to 25%

---

# inhibition at 10 µM annotations
Test system: MIA PaCa-2 pancreatic cancer cell line
measurement.protocol: Cell proliferation assay (DAPI)
Assay type: cell-based
condition.summary: Homo sapiens; 10 μM, MIA PaCa-2 (Table 5A); read-out: % Inhibition of cell proliferation, MIA PaCa-2 % inh

molecule: CO[C@H]1C[C@@H](Nc2nc(-c3nccn3C)nc3sc(C(=O)NC(C)C)c(-c4ccccc4)c23)C1 [drawing 655]
tgt: MIA PaCa-2 pancreatic cancer cell line
inhibition at 10 µM: 51 to 75%
//
molecule: CO[C@H]1C[C@@H](Nc2nc(-c3nccn3C)nc3sc(-c4ccn(C)n4)c(-c4ccccc4)c23)C1 [drawing 640]
tgt: MIA PaCa-2 pancreatic cancer cell line
inhibition at 10 µM: 76 to 100%
//
molecule: COc1nc(-c2ccccn2)nc2c(-c3ccccn3)csc12 [drawing 648]
tgt: MIA PaCa-2 pancreatic cancer cell line
inhibition at 10 µM: 51 to 75%
//
molecule: COC1CCN(c2nc(-c3nccn3C)nc3sc(-c4cccc(O)c4F)c(-c4ccccc4)c23)C1 (stereo not shown) [drawing 625]
tgt: MIA PaCa-2 pancreatic cancer cell line
inhibition at 10 µM: 76 to 100%

---

tgt: KRas G12D mutant (Homo sapiens, UniProt P01116, G12D)
Construct: fused on or other part: His tag, used for capture on nickel-coated plates
measurement.protocol: Ras GTP binding domain inhibition assay (Cy3-GTP/Cy5-GTP competition)
condition.summary: 20 μM; with SOS; read-out: KRas G-12D mutant + SOS: % inh.
recorded.endpoint: inhibition at 20 µM

compound: Cn1ccnc1-c1nc(O)c(O)c(C(=O)N2CCCCC2)n1 [drawing 826]
val: 1 to 25%

compound: COc1ccc(Cn2cnc(-c3nc(O)c4scc(-c5ccccn5)c4n3)c2)cc1 [drawing 839]
val: 0%

compound: COCCN(C)C(=O)c1nc(-c2ccccn2)nc(O)c1O [drawing 810]
val: 1 to 25%

compound: COCCCNc1nc(-c2nccn2C)nc2sc(-c3ccn(C)n3)c(-c3ccccc3)c12 [drawing 866]
val: 26 to 50%

compound: COCCNc1nc(-c2cn(C)cn2)nc2sc(-c3ccccc3Cl)c(-c3ccc(OC)cc3)c12 [drawing 873]
val: 76 to 100%

compound: COCCCN(C)c1nc(-c2nccn2C)nc2sc(-c3ccn(C)n3)c(-c3ccccc3)c12 [drawing 865]
val: 26 to 50%

compound: Cc1cnc(-c2nc(O)c3scc(-c4ccccn4)c3n2)n1C [drawing 808]
val: 1 to 25%

compound: COc1ccc(-c2c(-c3cccc(OC)c3F)sc3nc(-c4nccn4C)nc(N4CCC(OC)C4)c23)cc1 (centres unmarked) [drawing 806]
val: 51 to 75%

---

# IC50 annotations
Tested on: MIA PaCa-2 pancreatic cancer cell line
measurement.protocol: Cell proliferation assay (DAPI)
Type: cell-based
condition.summary: Homo sapiens; MIA PaCa-2 (Table 5A)

molecule: COC1CCN(C(=O)c2sc3nc(-c4nccn4C)nc(N[C@H]4C[C@@H](OC)C4)c3c2-c2ccccc2)C1 (stereo partly shown) [drawing 658]
tgt: MIA PaCa-2 pancreatic cancer cell line
IC50: > 1000 nM

molecule: CO[C@H]1C[C@@H](Nc2nc(-c3nccn3C)nc3sc(-c4ccn(C)n4)c(C)c23)C1 [drawing 649]
tgt: MIA PaCa-2 pancreatic cancer cell line
IC50: > 1000 nM

molecule: Cc1c(-c2ccn(C)n2)sc2nc(-c3nccn3C)nc(NCCCC(=O)N(C)C)c12 [drawing 652]
tgt: MIA PaCa-2 pancreatic cancer cell line
IC50: > 1000 nM

molecule: CO[C@H]1CC[C@@H](Nc2nc(-c3nccn3C)nc3sc(-c4ccn(C(C)C)n4)c(C)c23)C1 [drawing 654]
tgt: MIA PaCa-2 pancreatic cancer cell line
IC50: 500 to 749 nM

molecule: COc1cccc(-c2sc3nc(-c4nccn4C)nc(N[C@@H]4CC[C@H](OC)C4)c3c2C)c1F [drawing 629]
tgt: MIA PaCa-2 pancreatic cancer cell line
IC50: 750 to 1000 nM

molecule: COCCNC(=O)c1sc2nc(-c3nccn3C)nc(N[C@H]3C[C@@H](OC)C3)c2c1-c1ccccc1 [drawing 656]
tgt: MIA PaCa-2 pancreatic cancer cell line
IC50: > 1000 nM

molecule: CCOc1cccc(Nc2nc(-c3ccccn3)nc(O)c2OC)c1 [drawing 617]
tgt: MIA PaCa-2 pancreatic cancer cell line
IC50: > 1000 nM

molecule: Cn1ccc(-c2sc3nc(-c4nccn4C)nc(N[C@@H]4CC[C@H](O)C4)c3c2-c2ccccc2)n1 (racemic) [drawing 644]
tgt: MIA PaCa-2 pancreatic cancer cell line
IC50: > 1000 nM

molecule: Cc1c(-c2ccn(C)n2)sc2nc(-c3nccn3C)nc(NCCCS(C)(=O)=O)c12 [drawing 651]
tgt: MIA PaCa-2 pancreatic cancer cell line
IC50: > 1000 nM

molecule: COC1CCC(Nc2nc(-c3nccn3C)nc3sc(-c4cccc5[nH]ncc45)c(C)c23)C1 (stereo not shown) [drawing 630]
tgt: MIA PaCa-2 pancreatic cancer cell line
IC50: > 1000 nM

molecule: COc1c(F)cccc1-c1sc2nc(-c3nccn3C)nc(NC3CCC(OC)C3)c2c1-c1ccccc1 (stereo not shown) [drawing 621]
tgt: MIA PaCa-2 pancreatic cancer cell line
IC50: 750 to 1000 nM

molecule: CO[C@H]1C[C@@H](Nc2nc(-c3nccn3C)nc3sc(-c4cnn(C)c4)c(-c4ccccc4)c23)C1 [drawing 627]
tgt: MIA PaCa-2 pancreatic cancer cell line
IC50: 750 to 1000 nM

molecule: CCn1cc(Nc2nc(-c3ccccn3)nc(O)c2OC)cn1 [drawing 616]
tgt: MIA PaCa-2 pancreatic cancer cell line
IC50: > 1000 nM

molecule: CO[C@H]1C[C@@H](Nc2nc(-c3nccn3C)nc3sc(C(=O)N4CCOCC4)c(-c4ccccc4)c23)C1 [drawing 657]
tgt: MIA PaCa-2 pancreatic cancer cell line
IC50: > 1000 nM

molecule: CO[C@H]1CC[C@@H](Nc2nc(-c3nccn3C)nc3sc(-c4ccn(C)n4)c(C)c23)C1 [drawing 650]
tgt: MIA PaCa-2 pancreatic cancer cell line
IC50: 750 to 1000 nM

molecule: COc1cccc(-c2sc3nc(-c4nccn4C)nc(NC4CCC(OC)C4)c3c2-c2ccccc2)c1F (stereo not shown) [drawing 618]
tgt: MIA PaCa-2 pancreatic cancer cell line
IC50: 750 to 1000 nM
